METHOD_DESCRIPTION: Tmax in BALB/c mouse at 20 mg/kg, ip measured upto 24 hrs by LC-MS/MS analysis
Format: ADME, organism-based
CONDITION_INFO: in vivo

>  <COMPOUND>
COC(=O)[C@]1([C@H]2CCn3c2nc2ccccc2c3=O)NCCc2c1[nH]c1ccccc21 (racemic)

>  <Tmax>
48 min

$$$$

* * *

METHOD_DESCRIPTION: AUC (0 to t) in BALB/c mouse at 20 mg/kg, ip measured upto 24 hrs by LC-MS/MS analysis
Type: ADME, organism-based
Parameters: time < 24 hrs, dose 20 mg/kg, route ip
CONDITION_INFO: in vivo

>  <MOLECULE>
COC(=O)[C@]1([C@H]2CCn3c2nc2ccccc2c3=O)NCCc2c1[nH]c1ccccc21 (racemic)

>  <AUC(0-t) at 24 h>
11000 ng·h/mL

$$$$

Measured values drawn from ChEMBL document CHEMBL5325471 for this set.
